A collection of binders and their measured EC50 (read off the curve)
Target: T1, human CTLA-4 expressed on cells (293-hCTLA-4 cells; CTLA-4-expressing CHO-K1 cells) (human, UniProt P16410 36-223)
T1 construct: also called CD152; cell-expressed CTLA-4
T1 sequence: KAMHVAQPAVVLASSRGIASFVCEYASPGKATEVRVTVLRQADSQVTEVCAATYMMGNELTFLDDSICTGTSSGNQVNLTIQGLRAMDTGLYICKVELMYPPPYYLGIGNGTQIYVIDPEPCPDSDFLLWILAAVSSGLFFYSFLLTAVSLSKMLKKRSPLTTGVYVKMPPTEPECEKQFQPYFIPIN
Experiment: flow cytometry (MFI) on 293F-hCTLA-4 cells, Alexa 488 anti-human (H+L) detection

[
  {
    "binder": "CL25-dPTM′ (antibody, human IgG1, V domains shown, HCAb variant with PTM removal) VH: EVQLVESGGGLIQPGGSLRLSCAASGFTVSSNYMSWVRQAPGKGLEWVSVIYSGGSTYYADSVKGRFTISRDNSKNTLYLQMNSLRAEDTAVYYCARAVPHSPSAFDRWGQGTLVTVSS",
    "EC50 (read off the curve)": "~1 nM"
  }
]

Moving on to another binder below.
[Q] Give a short answer stating reported EC50 (read off the curve) for CL22-dPTM (antibody, human IgG1, V domains shown, HCAb variant with PTM removal) VH: EVQLVETGGGLIQPGGSLRLSCAVSGFTVRNNYMSWARQVPGKGLEWVSVIYSGGSITYADSVKGRFIISRDNSKNTLYLQMNGLRAEDTAVYYCARAVPHAPSAFDIWGQGTMVTVSS .
[A] ~1 nM

Taken from patent US20190202914A1.
